Listed below: IC50 values for each entry.
Target: PTP1B (Homo sapiens, UniProt P18031)
Sequence (P18031 1-321): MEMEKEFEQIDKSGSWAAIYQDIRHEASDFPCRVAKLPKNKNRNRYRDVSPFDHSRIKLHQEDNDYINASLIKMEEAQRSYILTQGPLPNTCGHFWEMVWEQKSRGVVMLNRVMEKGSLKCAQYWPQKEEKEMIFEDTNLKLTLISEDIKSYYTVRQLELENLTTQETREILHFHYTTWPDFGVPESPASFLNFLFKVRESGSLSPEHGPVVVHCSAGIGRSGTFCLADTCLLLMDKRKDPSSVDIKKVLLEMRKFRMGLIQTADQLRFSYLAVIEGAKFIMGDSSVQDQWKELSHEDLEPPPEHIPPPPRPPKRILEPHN
Return type: number; implicit unit µM.

O=C(CSc1nc2cc(Oc3cccc4ccccc34)c(Cl)cc2[nH]1)Nc1nccs1 [Compound 2]    8.4

Ask: Consider the compound O=C(Nc1nc2cc(Oc3cccc(Cl)c3Cl)c(Cl)cc2[nH]1)C(F)(F)F [Compound 3] and give its recorded IC50.
Result: 31.3

----------
Below, each entry is listed alongside its reported % Inhibition (200 µM).
target: PTP1B (Homo sapiens, UniProt P18031); construct: encodes for PTP1B (residues 1–321); inferred from the pET28A vector, NdeI/BamHI cloning and Ni-agarose purification) (N); made in house; host or cells: E. coli BLR; experiment: PTP1B enzymatic inhibition assay (pNPP substrate); type: biochemical; details: Table S1, 200 µM compound
State just the number; it will be interpreted in %.

Use these answered entries as a reference point.
COC(=O)c1c(Cl)ccc2nc(Cc3ccc([N+](=O)[O-])cc3)sc12    56
Cn1c(SCCn2ccnc2)nc2cc(Cl)ccc21    42
O=C(CSc1nc2cc(Oc3cccc4ccccc34)c(Cl)cc2[nH]1)Nc1ncc([N+](=O)[O-])s1    63
COC(=O)c1cccc2nc(Cc3ccc([N+](=O)[O-])cc3)sc12    64
CSc1nc2cc(C(=O)N/N=C/c3ccc([N+](=O)[O-])o3)ccc2n1C    34

Ask: Quick one: give measured % Inhibition (200 µM) for COC(=O)c1cc2nc(SCC(=O)Nc3ccc([N+](=O)[O-])cn3)[nH]c2cc1Cl
Result: 63

Ask: Provide % Inhibition (200 µM) value for the following compound: COc1cc(C=NNC(=O)CSCc2c(C)c(C)c(C)c(C)c2C)cc(OC)c1OC
Result: 63

Ask: Retrieve % Inhibition (200 µM) measured for O=C(CSc1nnc(-c2cc(OCC(F)(F)F)ccc2OCC(F)(F)F)o1)c1ccccc1 and print it.
Result: 64

Ask: For the compound Cn1c(SCCn2ccnc2)nc2ccc(Cl)cc21 , give its measured % Inhibition (200 µM) value.
Result: 32

Ask: Tell me % Inhibition (200 µM) reported for COC(=O)c1cc(S(=O)(=O)NCC2CN(Cc3ccccc3)CN(Cc3ccccc3)C2)oc1C
Result: 50
